- Test target: Butyrylcholinesterase (Equus caballus, UniProt Q9N1N9)
- Sequence (Q9N1N9 whole entry): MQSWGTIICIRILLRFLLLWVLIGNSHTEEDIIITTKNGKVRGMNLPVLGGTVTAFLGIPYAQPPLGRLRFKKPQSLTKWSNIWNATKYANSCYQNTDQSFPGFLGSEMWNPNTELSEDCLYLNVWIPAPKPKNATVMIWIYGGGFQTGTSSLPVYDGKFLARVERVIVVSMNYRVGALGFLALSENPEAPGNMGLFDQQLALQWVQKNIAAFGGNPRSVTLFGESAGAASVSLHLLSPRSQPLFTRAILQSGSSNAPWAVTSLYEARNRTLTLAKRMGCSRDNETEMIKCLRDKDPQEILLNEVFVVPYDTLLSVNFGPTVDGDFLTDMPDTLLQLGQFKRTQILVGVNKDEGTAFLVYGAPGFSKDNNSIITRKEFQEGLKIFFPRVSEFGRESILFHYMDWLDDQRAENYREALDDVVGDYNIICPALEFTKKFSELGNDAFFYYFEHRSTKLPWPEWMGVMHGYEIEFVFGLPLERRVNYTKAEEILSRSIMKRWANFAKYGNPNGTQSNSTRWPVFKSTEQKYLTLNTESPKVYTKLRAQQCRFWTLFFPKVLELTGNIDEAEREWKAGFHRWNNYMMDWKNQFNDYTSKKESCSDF
Reported endpoint: pIC50
When answering, recall that pIC50 equals minus log10 of the concentration in mol/L, and write that number alone.

In the examples that follow, each entry is paired with its recorded pIC50.
{"columns": ["Smiles input", "Test target", "Reported endpoint", "Measured"],
 "data": [
  ["CN(c1ccc(Cl)cc1)c1cc[n+](Cc2ccc(-c3ccc(C[n+]4ccc(N(C)c5ccc(Cl)cc5)cc4)cc3)cc2)cc1", "Butyrylcholinesterase (Equus caballus, UniProt Q9N1N9)", "pIC50", 6.17],
  ["COc1cc2c(cc1OC)CN(c1cc[n+](Cc3cccc(C[n+]4ccc(N5CCc6cc(OC)c(OC)cc6C5)cc4)c3)cc1)CC2", "Butyrylcholinesterase (Equus caballus, UniProt Q9N1N9)", "pIC50", 6.05],
  ["c1cc(C[N+]23CCC(CC2)CC3)cc(-c2cccc(C[N+]34CCC(CC3)CC4)c2)c1", "Butyrylcholinesterase (Equus caballus, UniProt Q9N1N9)", "pIC50", 7.05]
]}

For the compound `CN(C)c1cc[n+](Cc2cccc(C[n+]3ccc(N(C)C)cc3)c2)cc1` , report pIC50.
5.12

Return pIC50 (reported value) for this compound: `c1cc(C[n+]2ccc(N3CCCCCC3)cc2)ccc1CCCc1ccc(C[n+]2ccc(N3CCCCCC3)cc2)cc1`
6.79

Report measured pIC50; entry is `CN(c1cc[n+](Cc2cc(C[n+]3ccc(N(C)c4cc(Cl)cc(Cl)c4)cc3)cc(C[n+]3ccc(N(C)c4cc(Cl)cc(Cl)c4)cc3)c2)cc1)c1cc(Cl)cc(Cl)c1`
6.17

Return the recorded pIC50 value; entry: `c1cc(C[n+]2ccc(N3CCCCC3)cc2)ccc1CCc1ccc(C[n+]2ccc(N3CCCCC3)cc2)cc1`
6.89

Report pIC50 for `Cc1c[n+](Cc2cccc(-c3cccc(C[n+]4cc(C)c(N)c5ccccc54)c3)c2)c2ccccc2c1N`
7.23

====

The compounds below have reported pIC50 for Acetylcholinesterase (Bos taurus).
A value of pIC50 is the negative decimal logarithm of a concentration given in moles per litre.

{"columns": ["Compound", "Reported endpoint", "Measured"],
 "data": [
  ["c1cc(C[n+]2ccc(N3CCCCC3)cc2)ccc1CCCc1ccc(C[n+]2ccc(N3CCCCC3)cc2)cc1", "pIC50", 6.79]
]}

In one line, give reported pIC50 of the entry `C(=C\c1ccc(C[n+]2ccc(N3CCCCC3)cc2)cc1)/c1ccc(C[n+]2ccc(N3CCCCC3)cc2)cc1` .
6.24

Give the measured pIC50 for `c1cc(C[n+]2ccc(NC3CCCCC3)cc2)ccc1CCCCc1ccc(C[n+]2ccc(NC3CCCCC3)cc2)cc1`
7.00

# return recorded pIC50 for entry `Cc1c2c(C)c3c(C)c1C[n+]1ccc(cc1)NCc1cc(cc(c1)CNc1cc[n+](cc1)C3)CNc1cc[n+](cc1)C2`
5.43

====

Reported pIC50, Butyrylcholinesterase (Equus caballus, UniProt Q9N1N9).
Hey, just a heads up that pIC50 is the negative log base 10 of the concentration in molar.

Consider the worked cases shown below.
{"columns": ["Molecule", "pIC50"],
 "data": [
  ["c1cc(C[n+]2ccc(N3CCCC3)cc2)ccc1C[n+]1ccc(N2CCCC2)cc1", 5.89],
  ["OC1C[N+]2(Cc3ccc(/C=C/c4ccc(C[N+]56CCC(CC5)C(O)C6)cc4)cc3)CCC1CC2 (centres undefined)", 5.27],
  ["C(=C\\c1ccc(C[n+]2ccc(N3CCCCC3)cc2)cc1)/c1ccc(C[n+]2ccc(N3CCCCC3)cc2)cc1", 6.61]
]}

Let us move to another entry and its pIC50.
Please supply the value of reported pIC50 for the item `c1cc(C[n+]2ccc(N3CCCC3)cc2)ccc1CCc1ccc(C[n+]2ccc(N3CCCC3)cc2)cc1`
6.13
